The measurements presented in this section are drawn from ChEMBL document CHEMBL3997787.

# target or system: Cannabinoid receptor 1 (Homo sapiens)
# Sequence (P21554 whole entry): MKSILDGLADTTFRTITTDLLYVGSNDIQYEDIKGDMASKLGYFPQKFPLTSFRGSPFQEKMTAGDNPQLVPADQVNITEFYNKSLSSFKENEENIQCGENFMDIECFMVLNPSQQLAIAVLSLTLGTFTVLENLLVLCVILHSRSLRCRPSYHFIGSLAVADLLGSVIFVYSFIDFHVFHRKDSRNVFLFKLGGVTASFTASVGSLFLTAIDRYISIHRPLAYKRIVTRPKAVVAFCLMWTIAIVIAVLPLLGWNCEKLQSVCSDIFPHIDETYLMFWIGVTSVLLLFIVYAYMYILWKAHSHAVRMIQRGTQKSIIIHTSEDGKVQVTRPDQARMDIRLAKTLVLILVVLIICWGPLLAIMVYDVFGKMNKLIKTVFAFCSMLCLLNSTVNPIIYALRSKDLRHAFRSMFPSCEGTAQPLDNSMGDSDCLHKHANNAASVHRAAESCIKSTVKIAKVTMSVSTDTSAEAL
# test details: Displacement of [3H]CP55940 from human CB1 receptor expressed in HEK293 EBNA cell membranes after 90 mins by liquid scintillation and luminescence counting method
# experimental setup: read-out: Ki
pKi: −log10 of the molar value.
Reported pKi values for a set of molecules

structure smiles string | target or system | pKi
O=C(NC1CCCCCC1)c1c2c(nn(Cc3ccc(F)cc3)c1=O)-c1ccccc1C2 | Cannabinoid receptor 1 (Homo sapiens) | < 5.40
O=C(NC1CCCCC1)c1cc(-c2ccccc2)nn(Cc2ccc(F)cc2)c1=O | Cannabinoid receptor 1 (Homo sapiens) | 6.33
C[C@H]1CC[C@@H](NC(=O)c2cc(-c3ccccc3)nn(Cc3ccc(F)cc3)c2=O)CC1 | Cannabinoid receptor 1 (Homo sapiens) | 6.94
Cc1cc(-c2cc(C(=O)N[C@H]3CC[C@@H](C)CC3)c(=O)n(Cc3ccc(F)cc3)n2)ccc1Cl | Cannabinoid receptor 1 (Homo sapiens) | < 5.40
Cc1cc(-c2cc(C(=O)N[C@H]3CC[C@H](C)CC3)c(=O)n(Cc3ccc(F)cc3)n2)ccc1Cl | Cannabinoid receptor 1 (Homo sapiens) | < 5.40
Cc1cc(-c2cc(C(=O)NC34CC5CC(CC(C5)C3)C4)c(=O)n(Cc3ccc(F)cc3)n2)ccc1Cl | Cannabinoid receptor 1 (Homo sapiens) | < 5.40
C[C@H]1CC[C@H](NC(=O)c2cc(-c3ccccc3)nn(Cc3ccc(F)cc3)c2=O)CC1 | Cannabinoid receptor 1 (Homo sapiens) | 6.49
Cc1cc(-c2cc(C(=O)N[C@@H]3C(C)(C)[C@@H]4CC[C@@]3(C)C4)c(=O)n(Cc3ccc(F)cc3)n2)ccc1Cl | Cannabinoid receptor 1 (Homo sapiens) | < 5.40
Cc1cc(-c2cc(C(=O)NC3CCCCC3)c(=O)n(Cc3ccc(F)cc3)n2)ccc1Cl | Cannabinoid receptor 1 (Homo sapiens) | < 5.40
Cc1cc(-c2cc(C(=O)NCCN3CCOCC3)c(=O)n(Cc3ccc(F)cc3)n2)ccc1Cl | Cannabinoid receptor 1 (Homo sapiens) | < 5.40
Cc1ccc(Cn2nc(-c3ccc(Cl)c(C)c3)cc(C(=O)NC3CCCCC3)c2=O)cc1 | Cannabinoid receptor 1 (Homo sapiens) | < 5.40
O=C(NC1CCCCCC1)c1cc(-c2ccccc2)nn(Cc2ccc(F)cc2)c1=O | Cannabinoid receptor 1 (Homo sapiens) | 7.48

====

# Species on record: Homo sapiens
# test details: Selectivity ratio of Ki for human CB1 receptor to Ki for human CB2 receptor

structure smiles string | Ratio Ki
Cc1cc(-c2cc(C(=O)NCCN3CCOCC3)c(=O)n(Cc3ccc(F)cc3)n2)ccc1Cl | > 12.9
Cc1cc(-c2cc(C(=O)N[C@H]3CC[C@H](C)CC3)c(=O)n(Cc3ccc(F)cc3)n2)ccc1Cl | > 444
Cc1cc(-c2cc(C(=O)NC34CC5CC(CC(C5)C3)C4)c(=O)n(Cc3ccc(F)cc3)n2)ccc1Cl | > 1180
Cc1cc(-c2cc(C(=O)N[C@@H]3C(C)(C)[C@@H]4CC[C@@]3(C)C4)c(=O)n(Cc3ccc(F)cc3)n2)ccc1Cl | > 1540
